system: Surinam grass (Brachiaria decumbens); assay: Test B pre-/postemergence plant response; type: in vivo; settings: Postemergence, 31 g ai/ha; 0 to 100 scale (0 no effect, 100 complete control)
hey, just use Y if measured Plant response rating, Surinam Grass is less than 70, otherwise N

| Molecule | Label Value |
| --- | --- |
| Cc1ccc(F)cc1-n1c(-c2cccc(Cl)c2)ncc(C(=O)C2=C(O)CCCC2=O)c1=O [Compound 157] | N |
| COCCCn1c(-c2cccc(Br)c2)ncc(C(=O)C2=C(O)CCCC2=O)c1=O [Compound 140] | Y |

Asked: Does COCCCn1c(-c2cccc(F)c2)ncc(C(=O)C2=C(O)C3CCC(C3)C2=O)c1=O (centres unmarked) [Compound 238] have Plant response rating, Surinam Grass strictly under 70?
Given back: N

Asked: And COCCn1c(-c2cccc(Cl)c2)ncc(C(=O)C2=C(O)CCCC2=O)c1=O [Compound 147] ?
Given back: Y

Asked: And Cc1ccccc1-n1c(-c2cc(F)cc(F)c2)ncc(C(=O)C2=C(O)CCCC2=O)c1=O [Compound 159] ?
Given back: N

Asked: And CCCn1c(-c2cccc(Cl)c2)ncc(C(=O)C2=C(O)CCCC2=O)c1=O [Compound 190] ?
Given back: Y

Asked: And O=C1CCCC(O)=C1C(=O)c1cnc(-c2ccccc2)n(C2CCSCC2)c1=O [Compound 164] ?
Given back: Y

---

Items are presented alongside their recorded Plant response rating, Ducksalad.
system: ducksalad (Heteranthera limosa); experiment: Test B flooded paddy test; type: in vivo; conditions: Flood (flooded paddy test), 62 g ai/ha; scale of 0 to 100 where 0 is no effect and 100 is complete control; 13 to 15 days

| Compound | Recorded Endpoint | Result |
| --- | --- | --- |
| CCCn1c(-c2cccs2)ncc(C(=O)C2=C(O)CCCC2=O)c1=O | Plant response rating, Ducksalad | 30 |

Asked: What value of Plant response rating, Ducksalad has been recorded for this entry: O=C(C1=C(O)C2CCC(C2)C1=O)c1cnc(-c2ccsc2)n(CC2CCCO2)c1=O (stereo not shown)
Given back: 0

Asked: And "CCc1cccc(-c2ncc(C(=O)C3=C(O)CCCC3=O)c(=O)n2C2CCCCC2)c1" ?
Given back: 50

Asked: And "Cc1cc(-n2c(-c3cccc(Cl)c3)ncc(C(=O)C3=C(O)CCCC3=O)c2=O)ccc1F" ?
Given back: 60

---

test system: large crabgrass (Digitaria sanguinalis); experiment: Test A pre-/postemergence plant response; format: in vivo; conditions: Preemergence, 125 g ai/ha; 0 to 100 scale, 0 = no effect, 100 = complete control
Items are presented alongside their recorded Plant response rating, Crabgrass, Large.
In your answer, state the number alone without any accompanying words.

| Test Smiles | Plant response rating, Crabgrass, Large |
| --- | --- |
| CCc1ccc(-n2c(-c3cccc(Cl)c3)ncc(C(=O)C3=C(O)CCCC3=O)c2=O)cc1 | 20 |
| C#Cc1ccc(-c2ncc(C(=O)C3=C(O)CCCC3=O)c(=O)n2C2CCCCC2)cc1 | 0 |
| Cc1ccc(-n2c(-c3ccccc3)ncc(C(=O)C3=C(O)CCCC3=O)c2=O)cc1 | 40 |

Asked: What value of Plant response rating, Crabgrass, Large has been recorded for this entry: "CCCn1c(-c2cccs2)ncc(C(=O)C2=C(O)CCCC2=O)c1=O"
Given back: 50
